All figures here come from the supplement of paper PMC10724198.

tested on: Saccharomyces cerevisiae; assay: protein stability index of tFT-peptide fusion (C-terminal peptide) (PSI (0-1 scale)); higher = more stable (slower turnover); settings: genetic background: cdc53-1; temperature: 37 C;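 also: PSI is a weighted mean of sequencing reads over stability bins, variants kept only with over 10 reads, mCherry proximal and sfGFP distal, peptide attached via GGGS linker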
// f strictly below 0.5 in protein stability index; t otherwise

Task: Hi, just wondering whether RRVLVVPCIWHM shows protein stability index of 0.5 or higher.
Result: t

Task: Could you verify whether the entry AGESLRAIAVLY shows protein stability index of no less than 0.5?
Result: t

Task: Check this sequence for protein stability index at or above 0.5: CCSRFLMLRILV
Result: f

Task: # bool: protein stability index of FRVSAFFLPFLS >= 0.5
Result: t

Task: Reported protein stability index reaches at least 0.5 for GGWSLFCIVVVV ?
Result: f

Task: State whether the measured protein stability index reaches 0.5, counting equality as reaching it, for PPLPPPPASVPP
Result: t

Task: hey, is protein stability index for this one >= 0.5? VWLAWCIVGGLG
Result: t

Task: Has EWGLGEIVVKVA a recorded protein stability index greater than or equal to 0.5?
Result: t

Task: Is it the case that WFSRCVSLGLCW has protein stability index reaching or exceeding 0.5?
Result: f

Task: Is protein stability index for LAFMYFVCPRLA at or above 0.5?
Result: t

Task: Confirm if protein stability index reported for the sequence WLCLAVLVRFPC is 0.5 or above.
Result: f

Task: Reported protein stability index at or above 0.5? VVGLSLLFSGGV
Result: t

Task: In plain terms: is recorded protein stability index at least 0.5 for TSLPPSPPPSPT ?
Result: t

Task: Evaluate LYSVLWFCFPLV : protein stability index at minimum 0.5?
Result: t

Task: Threshold query (protein stability index >= 0.5) on VFLPVMVFFTFS
Result: f

Task: Check if protein stability index >= 0.5 (inclusive). Item: AFSISPFRLRMV
Result: t

Task: Dear colleague, could you confirm whether FFVRSWWVELLF has protein stability index at or above 0.5?
Result: t

Task: I'd appreciate it if you could say whether LFLSFLLFVLAF has protein stability index at least equal to 0.5.
Result: f

Task: protein stability index >= 0.5 for CSVPLGVFAIVV ?
Result: f

Task: Reported protein stability index at or above 0.5? SVLSFGVFCLVG
Result: t

Task: Is reported protein stability index greater than or equal to 0.5 here: RNNLHKKIRRGY
Result: t

Task: Check this sequence for protein stability index at or above 0.5: QVSHLFAAVQLA
Result: t

Task: Is protein stability index for WSISFGLLVCWV at or above 0.5?
Result: f

Task: Hi team, for WFLLSLSSFVSS , is the recorded protein stability index at or above 0.5?
Result: f

Task: Does SFQLVFLCVLIW have a reported protein stability index of at least 0.5?
Result: f

Task: Reported protein stability index at or above 0.5? KYQVIILQTRKI
Result: t

Task: Test whether the sequence CIVFVYCLFSCP records protein stability index of 0.5 or higher.
Result: f

Task: // inclusive: protein stability index at least 0.5? input: LLLIGISFLIFY
Result: f

Task: Would you say FCSFSWFLFLRS shows protein stability index at minimum 0.5?
Result: f

Task: Is the recorded value of protein stability index equal to or greater than 0.5 for this sequence? AVVCSRLVLFCL
Result: t

Task: Say whether FLSCSRRPLRCW shows protein stability index of 0.5 or more.
Result: f

Task: // inclusive: protein stability index at least 0.5? input: VTVWVFVFLRGL
Result: f

Task: Hi, just wondering whether LLILSVRPFVFV shows protein stability index of 0.5 or higher.
Result: t

Task: Form field: protein stability index at least 0.5? Entry: FLFSVVFFFFSL
Result: f

Task: Does protein stability index meet or surpass 0.5 for CTLVVGLFVLVV ?
Result: f

Task: # bool: protein stability index of GLFLLWWLGWLV >= 0.5
Result: t

Task: For this sequence, is measured protein stability index 0.5 or higher? APLFPPPPARSL
Result: t

Task: State whether the measured protein stability index reaches 0.5, counting equality as reaching it, for HSRALLPYLSYH
Result: t

Task: Threshold query (protein stability index >= 0.5) on AFWLFSGIARLA
Result: t

Task: Please tell me: is the sequence TSFLHLFVAAII at or over 0.5 in terms of protein stability index?
Result: t

Task: Form field: protein stability index at least 0.5? Entry: FTNLDYTKEKNN
Result: t

Task: Assess whether reported protein stability index for GFRVTTCASWIC sits at 0.5 or higher.
Result: t

Task: protein stability index >= 0.5 for LIMIRLLYLRLI ?
Result: f

Task: Determine whether this sequence has protein stability index no lower than 0.5: FLLEVFVLGRTL
Result: t

Task: Decide: protein stability index of SSVLLMFFCFVC >= 0.5?
Result: f

Task: // inclusive: protein stability index at least 0.5? input: LGRFHLACLLFL
Result: t

Task: State whether the measured protein stability index reaches 0.5, counting equality as reaching it, for YFFFPILCFCFF
Result: f

Task: Has FVRSVFFCVSVG a recorded protein stability index greater than or equal to 0.5?
Result: t

Task: Could you please find out whether LSVSLFPIRYVG has protein stability index that meets 0.5 or exceeds it?
Result: t

Task: Reported protein stability index reaches at least 0.5 for LWFFVGFAVYGG ?
Result: f

Task: Entry PFPTPPPIPRSP : is its protein stability index no less than 0.5?
Result: t

Task: Check the entry VFLDCCLRVFVD : does protein stability index equal or exceed 0.5?
Result: f

Task: Item TFRVLAFFCRVV with protein stability index of 0.5 or above?
Result: t

Task: Exam item: decide whether the reported protein stability index for FIICAASWFFLG is at least 0.5.
Result: t

Task: Confirm if protein stability index reported for the sequence VYCCVRSLRVAI is 0.5 or above.
Result: t

Task: Please check the record NDSSWEVSLMVG and state if its protein stability index is at or above 0.5.
Result: t

Task: Reported protein stability index at or above 0.5? LLLALLFWPCPI
Result: t

Task: Please tell me: is the sequence GWGVFFVMRIQV at or over 0.5 in terms of protein stability index?
Result: f

Task: I'd appreciate it if you could say whether VCCSSVSLLVFA has protein stability index at least equal to 0.5.
Result: f

Task: Quick check: does RDYIAAKLVVCG have protein stability index greater than or equal to 0.5?
Result: f

Task: Would you say FAFPTPPPLLFD shows protein stability index at minimum 0.5?
Result: t

Task: Kindly determine if protein stability index recorded for WCFGSLLIRFSL is above or exactly 0.5.
Result: f

Task: Hi team, for WISVRIFISCFF , is the recorded protein stability index at or above 0.5?
Result: f

Task: Hi team, for GGSWVRCLRTMG , is the recorded protein stability index at or above 0.5?
Result: t

Task: Is the recorded value of protein stability index equal to or greater than 0.5 for this sequence? PPTRVPVTLFLV
Result: t

Task: Hi, just wondering whether VAFGVASGWCWF shows protein stability index of 0.5 or higher.
Result: t

Task: In plain terms: is recorded protein stability index at least 0.5 for WCFFFVGCCCFG ?
Result: t

Task: Is the recorded value of protein stability index equal to or greater than 0.5 for this sequence? TLDCKFGRGGIG
Result: f
